Ref: patent US20240116985A1

Target: beta-catenin (full-length, Uniprot ID P35222) (Homo sapiens (Human)) (UniProt P35222)
Sequence (P35222 2-781 limits assumed): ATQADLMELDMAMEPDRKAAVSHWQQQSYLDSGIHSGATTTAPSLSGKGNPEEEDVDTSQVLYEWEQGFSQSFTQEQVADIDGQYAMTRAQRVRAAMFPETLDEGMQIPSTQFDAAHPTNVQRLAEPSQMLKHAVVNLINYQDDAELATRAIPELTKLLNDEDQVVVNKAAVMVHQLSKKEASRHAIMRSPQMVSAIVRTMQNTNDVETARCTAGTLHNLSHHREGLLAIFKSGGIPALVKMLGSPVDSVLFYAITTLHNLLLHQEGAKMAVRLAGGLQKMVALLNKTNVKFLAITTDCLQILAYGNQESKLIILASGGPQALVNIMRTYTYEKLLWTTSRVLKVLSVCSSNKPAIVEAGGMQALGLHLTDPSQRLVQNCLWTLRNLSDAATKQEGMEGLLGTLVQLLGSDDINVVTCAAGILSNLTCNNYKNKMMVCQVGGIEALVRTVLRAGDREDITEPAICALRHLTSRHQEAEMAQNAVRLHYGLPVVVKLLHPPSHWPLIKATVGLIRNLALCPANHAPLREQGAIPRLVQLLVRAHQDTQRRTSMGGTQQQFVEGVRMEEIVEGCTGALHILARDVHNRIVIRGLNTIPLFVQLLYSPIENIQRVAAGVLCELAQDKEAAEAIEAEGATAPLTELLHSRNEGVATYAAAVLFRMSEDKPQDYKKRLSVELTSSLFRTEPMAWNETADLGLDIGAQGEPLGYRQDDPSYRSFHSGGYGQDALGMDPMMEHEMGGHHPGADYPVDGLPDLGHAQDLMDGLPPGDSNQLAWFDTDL
Assay: fluorescence polarization competition, displacement of 5FAM-TCF4 10-53 from full-length beta-catenin
Starred links: 1 amine or outer side, 2 acyl side, 3 side chain; linkers in the order of their positions; H or OH if unused. Positions of bridges follow the written chain, without caps; N, C: chain ends. Non-standard residues stand in square brackets, D forms with d. Primed or numbered codes have the meaning given here. B5(4) = 2,2-bis(4-pentenyl)glycine = 2-amino-2-(pent-4-en-1-yl)hept-6-enoic acid (stitching residue), C=CCCCC(CCCC=C)(N[*:1])C(=O)[*:2]; TfeGA = (S)-2-amino-3-((carboxymethyl)(2,2,2-trifluoroethyl)amino)propanoic acid, O=C([C@H](CN(CC(=O)[*:3])CC(F)(F)F)N[*:1])[*:2]; Bta = N[C@@H](Cc1csc2ccccc12)C(=O)O; αAllylPro = C=CC[C@@]1(C(=O)O)CCCN1; S8 = C=CCCCCCC[C@](C)(N)C(=O)O
measurement_label: IC50 (nM)
All answers are understood in nM, so give the number only.

Q) Could you tell me which IC50 is on file for Ac-[αAllylPro]DA[B5(4)]D[TfeGA]AAFV[S8]F[Bta]Q-NH2 (staple 1-4, 4-11) [I-293: Ac-PL3-Asp-Ala-B5-Asp-TfeGA-Ala-Ala-Phe-Val-S8-Phe-BztA-Gln-NH2] ?
A) 140
